assay: qHTS RealTime-Glo MT Cell Viability Assay in HepG2 cells - 40 hour (AID 1224870); settings: RealTime-Glo luminescence; series mostly up to 76.8 µM; further: nearly all actives have a fitted effect of over 50% in size
Results filed as inconclusive are left out. Activity calls are given as the source filed them. The call rests on the fitted dose curve; in most records, active means well fitted cell-killing curve with a large enough effect in the repeat runs; inconclusive means weak or mixed curves, or effect the other way; inactive means flat fitted curve, though single readings scatter.
measure: outcome

1. FC(F)(F)c1ccc(Cl)c(Cl)c1; inactive
2. CC(O)COCC(C)O (configuration not stated); inactive
3. CCCCCC/C(C=O)=C\c1ccccc1; inactive
4. C=C(C)C(=O)OCCOCCOCCOC(=O)C(=C)C; inactive
5. C[C@H]1C[C@@H]2[C@H]([C@@H](O)C[C@@]3(C)[C@H]2CC[C@]3(O)C(=O)CO)[C@@]2(C)C=CC(=O)C=C12; inactive
6. CCCCCCCCCC; inactive
7. CCCCC(CC)COC(=O)CCCCC(=O)OCC(CC)CCCC (configuration not stated); inactive
8. C[Si](O[Si](C)(C)C)O[Si](C)(C)C; inactive
9. c1ccc2scnc2c1; inactive
10. C=C(C)C(=O)Nc1ccc(Cl)c(Cl)c1; inactive
11. Cc1ccc2oc(=O)ccc2c1; inactive
12. CC(=O)CC(=O)Nc1ccccc1; inactive
13. CC[C@H](C)C(=O)O[C@H]1C[C@@H](C)C=C2C=C[C@H](C)[C@H](CC[C@@H]3C[C@@H](O)CC(=O)O3)[C@H]21; inactive
14. COCCCOc1ccnc(CS(=O)c2nc3ccccc3[nH]2)c1C (configuration not stated); inactive
15. CCCCCCCCCCCCCCCO; inactive
16. O=c1[nH]c(=O)n([C@H]2C[C@H](O)[C@@H](CO)O2)cc1Br; inactive
17. CC1=CC(=O)NS(=O)(=O)O1; inactive
18. O=S1(=O)CC=CC1; inactive
19. CCCCC(CC)COC(=O)C(C#N)=C(c1ccccc1)c1ccccc1 (configuration not stated); inactive
20. O=C(CC(C(=O)OC1CCCCC1)S(=O)(=O)O)OC1CCCCC1 (configuration not stated); inactive
21. O=C(Oc1ccccc1)c1ccccc1; inactive
22. CCCCCCCCC/C=C/CC1CC(=O)OC1=O (configuration not stated); inactive
23. CCCCCC(N)=O; inactive
24. O=C(O)CCCCCCCCCCC(=O)O; inactive
25. COc1cc(Cc2cnc(N)nc2N)cc(OC)c1OC; inactive
26. Nc1ccccc1[N+](=O)[O-]; inactive
27. COS(C)(=O)=O; inactive
28. C=CCNC(N)=S; inactive
29. Cc1cccc(O)c1; inactive
30. C/C=C1/CC2C=CC1C2 (configuration not stated); inactive
31. COc1ccc(Cl)cc1C(=O)NCCc1ccc(S(=O)(=O)NC(=O)NC2CCCCC2)cc1; inactive
32. COc1ccc(Nc2ccccc2)c(C)c1; inactive
33. CCC(O)OC(O)CC (configuration not stated); inactive
34. CCCCCC1=CCCC1=O; inactive
35. O=c1[nH]nnc2ccccc12; inactive
36. O=c1[nH]c(=O)n([C@H]2CCCO2)cc1F; inactive
37. CC1CCC(C(C)C)C(O)C1 (configuration not stated); inactive
38. CN(C)CCCN; inactive
39. Cc1cc(C)c(C)cc1C; inactive
40. C#CCN(C)Cc1ccccc1; inactive
41. c1ccc(OCCOc2ccccc2)cc1; inactive
42. ON=C1CCCCC1; inactive
43. C=C(C)C(=O)O[C@H]1C[C@@H]2CC[C@@]1(C)C2(C)C; inactive
44. CCCCCCCCCCCCOCCO; inactive
45. Cc1cnc(C(=O)NCCc2ccc(S(=O)(=O)NC(=O)NC3CCCCC3)cc2)cn1; inactive
46. CCCCOC(=O)COc1ccc(Cl)cc1Cl; inactive
47. CCN(CC)c1ccc(C(=O)c2ccccc2C(=O)O)c(O)c1; inactive
48. O=C(O)CC(C(=O)O)C(CC(=O)O)C(=O)O (configuration not stated); inactive
49. C[C@H]1C[C@H]2[C@@H]3CCC4=CC(=O)C=C[C@]4(C)[C@@]3(F)[C@@H](O)C[C@]2(C)[C@@]1(O)C(=O)CO; inactive
50. O=[N+]([O-])c1ccc(/C=C/c2ccc([N+](=O)[O-])cc2S(=O)(=O)O)c(S(=O)(=O)O)c1; inactive
51. CCCCCCOCCO; inactive
52. CCCCCCCCCCCCc1ccccc1; inactive
53. CCCCN(CCCC)CCCC; inactive
54. O=C(O)[C@H](O)[C@@H](O)[C@H](O)[C@H](O)CO; inactive
55. CCCCCCCCCCCCS; inactive
56. CCOC(=O)NNc1nncc2ccccc12; inactive
57. CC(C)(N)CO; inactive

---

molecular target: Luciferin 4-monooxygenase (Photinus pyralis); assay: qHTS assay to identify small molecule inhibitors of firefly luciferase (AID 1224835); further: nearly all actives have a fitted effect of over 25% in size; details: purified P. pyralis luciferase, luminescence inhibition; series mostly up to 115 µM
Inconclusive results are not listed. Active and inactive are the calls of the source. The call rests on the fitted dose curve; in most records, active means well fitted inhibition curve with a large enough effect in the repeat runs; inconclusive means weak or mixed curves; inactive means flat fitted curve, though single readings scatter.
Outcome codes: active, inactive

1. CC(C)(C)[C@@H](O)[C@@H](Cc1ccc(Cl)cc1)n1cncn1; inactive
2. OCC(CO)(CBr)CBr; inactive
3. C=C(C)C(=O)Nc1ccc(Cl)c(Cl)c1; inactive
4. Fc1ccc(Br)cc1; inactive
5. CC(=O)c1ccccc1; inactive
6. O=P(OC(CCl)CCl)(OC(CCl)CCl)OC(CCl)CCl; inactive
7. CCCCCC(N)=O; inactive
8. CC(C)CC(=O)CC(C)C; inactive
9. C/C=C1/CC2C=CC1C2 (stereo not given); inactive
10. Cc1ccc2oc(=O)ccc2c1; inactive
11. O=C(O)c1ccc2c(c1)C(=O)OC2=O; inactive
12. C=C(C)C(=O)OCCOCCOCCOC(=O)C(=C)C; inactive
13. Cc1cnc(C(=O)NCCc2ccc(S(=O)(=O)NC(=O)NC3CCCCC3)cc2)cn1; inactive
14. Nc1ccccc1[N+](=O)[O-]; inactive
15. OC[C@H]1O[C@@](CO)(O[C@H]2O[C@H](CO)[C@@H](O)[C@H](O)[C@H]2O)[C@@H](O)[C@@H]1O; inactive
16. CC(c1cc2ccccc2s1)N(O)C(N)=O (stereo not given); inactive
17. CC1CCC2CC1C2(C)C (stereo not given); inactive
18. CC(=O)Nc1ccccc1; inactive
19. CCCCCCCCCCCCCCO; active
20. CN(C)CCCN; inactive
21. CC1CCC(C(C)C)C(O)C1 (stereo not given); inactive
22. C#C[C@]1(O)CC[C@H]2[C@@H]3CCC4=CC(=O)CC[C@@H]4[C@H]3CC[C@@]21C; inactive
23. CCCCCCCCCCCCCCCO; inactive
24. COc1cc(Cc2cnc(N)nc2N)cc(OC)c1OC; inactive
25. O=c1[nH]c(=O)n([C@H]2CCCO2)cc1F; inactive
26. CC1=C(C)S(=O)(=O)CCS1(=O)=O; inactive
27. C=CCNC(N)=S; inactive
28. CSCCC=O; inactive
29. C[Si](O[Si](C)(C)C)O[Si](C)(C)C; inactive
30. CCC(O)OC(O)CC (stereo not given); inactive
31. CCCCC(CC)CO (stereo not given); inactive
32. O=C(O)[C@H](O)[C@@H](O)[C@H](O)[C@H](O)CO; inactive
33. c1c[nH]cn1; inactive
34. FC(F)(F)c1ccc(Cl)c(Cl)c1; inactive
35. O=S(=O)(O)c1ccc2ccccc2c1; inactive
36. C[C@H]1C[C@@H]2[C@H]([C@@H](O)C[C@@]3(C)[C@H]2CC[C@]3(O)C(=O)CO)[C@@]2(C)C=CC(=O)C=C12; inactive
37. ON=C1CCCCC1; inactive
38. CCCCCC1=CCCC1=O; inactive
39. O=C(O)c1ccccc1C(c1ccc(O)cc1)c1ccc(O)cc1; inactive
40. Cc1ccc(S(N)(=O)=O)cc1; inactive
41. CC(C)c1ccc(S(=O)(=O)O)cc1; inactive
42. CCCCCOC(C)=O; inactive
43. CC[C@H](C)C(=O)O[C@H]1C[C@@H](C)C=C2C=C[C@H](C)[C@H](CC[C@@H]3C[C@@H](O)CC(=O)O3)[C@H]21; inactive
44. CCCCN(CCCC)CCCC; inactive
45. O=C1CCC(N2C(=O)c3ccccc3C2=O)C(=O)N1 (stereo not given); inactive
46. C#CCN(C)Cc1ccccc1; inactive
47. CCCCCCCC(=O)OC; inactive
48. Cc1cccc(O)c1; inactive
49. Cc1cccnc1; inactive
50. COS(C)(=O)=O; inactive
51. CC(C)(N)CO; inactive
52. C=CCOC(=O)c1ccccc1C(=O)OCC=C; inactive
53. OCCOCCOCCO; inactive
54. CCCCCCCCC/C=C/CC1CC(=O)OC1=O (stereo not given); active
55. COc1ccc(NC(C)=O)cc1N; inactive

---

test: A CellTox Green Cytotoxicity Assay to monitor cytotoxicity in HEK293 cells - 16 hour (AID 1224888); conditions: CellTox Green fluorescence; series mostly up to 76.8 µM; further: nearly all actives have a fitted effect of over 35% in size
Inconclusive results are not listed. Active and inactive are the calls of the source. Calls follow the shape of the dose curve; as a rule, active = well fitted activation curve with a large enough effect in the repeat runs; inconclusive = weak or mixed curves; inactive = flat fitted curve, though single readings scatter.
measure: outcome

1. Cc1ccc2oc(=O)ccc2c1; inactive
2. CCCCCC1=CCCC1=O; inactive
3. COc1cc(Cc2cnc(N)nc2N)cc(OC)c1OC; inactive
4. CN(C)CCC(c1ccccc1)c1ccccn1 (stereo not given); inactive
5. CCCCC(CC)CO (stereo not given); inactive
6. CC(=O)CC(=O)Nc1ccccc1C; inactive
7. CC(C)c1ccc(S(=O)(=O)O)cc1; inactive
8. CCCCCCCCC/C=C/CC1CC(=O)OC1=O (stereo not given); inactive
9. COc1ccc(NC(C)=O)cc1N; inactive
10. O=C(O)c1cc(O)c(O)c(O)c1; inactive
11. CCCCCCCCCCCCOCCO; inactive
12. O=c1[nH]c(=O)n([C@H]2CCCO2)cc1F; inactive
13. CCOC(=O)NNc1nncc2ccccc12; inactive
14. COc1ccc2cc([C@H](C)C(=O)O)ccc2c1; inactive
15. CC1CCC(C(C)C)C(O)C1 (stereo not given); inactive
16. c1ccc2c(c1)ccc1ccccc12; inactive
17. CC(C)CC(=O)CC(C)C; inactive
18. C=CCOC(=O)c1ccccc1C(=O)OCC=C; inactive
19. CCCCCCCCCC; inactive
20. C#CCN(C)Cc1ccccc1; inactive
21. N[C@@H](Cc1cc(I)c(Oc2cc(I)c(O)c(I)c2)c(I)c1)C(=O)O; inactive
22. C[C@H]1C[C@@H]2[C@H]([C@@H](O)C[C@@]3(C)[C@H]2CC[C@]3(O)C(=O)CO)[C@@]2(C)C=CC(=O)C=C12; inactive
23. CCCCN(CCCC)CCCC; inactive
24. CC(=O)Nc1ccccc1; inactive
25. Fc1ccc(Br)cc1; inactive
26. CCCCCCCCCCCCCCO; inactive
27. O=S1(=O)CC=CC1; inactive
28. O=C(CC(C(=O)OC1CCCCC1)S(=O)(=O)O)OC1CCCCC1 (stereo not given); inactive
29. C=C(C)C(=O)O[C@H]1C[C@@H]2CC[C@@]1(C)C2(C)C; inactive
30. CCCCC(CC)COC(=O)CCCCC(=O)OCC(CC)CCCC (stereo not given); inactive
